Measured values drawn from patent US20090142808A1 for this set.

System: purified X. dendrorhous enzyme (F-3)
Protocol Details: Fructosyltransferase activity: sucrose 600 g/l incubated with purified enzyme at 60° C., HPLC
Assay type: biochemical, Xanthophyllomyces dendrorhous
Condition Summary: 160 h, new catalyst load (5 U) added after 140 hours
Measurement Kind: Composition of the reaction mixture (grams/liter)
Your answer should be a plain number; it is taken to be in grams/liter.

Enquiry: Consider the compound `O=C[C@H](O)[C@@H](O)[C@H](O)[C@H](O)CO` . State its measured Composition of the reaction mixture.
Return: 119.5

Enquiry: Return Composition of the reaction mixture (reported value) for this compound: `OC[C@H]1O[C@@](CO)(OC[C@H]2O[C@H](O[C@]3(CO)O[C@H](CO)[C@@H](O)[C@@H]3O)[C@H](O)[C@@H](O)[C@@H]2O)[C@@H](O)[C@@H]1O`
Return: 41.6

Enquiry: In one line, give reported Composition of the reaction mixture of the entry `OC[C@H]1O[C@@](CO)(OC[C@@]2(O[C@H]3O[C@H](CO)[C@@H](O)[C@H](O)[C@H]3O)O[C@H](CO)[C@@H](O)[C@@H]2O)[C@@H](O)[C@@H]1O` .
Return: 23.9

Enquiry: Annotate the compound `OC[C@H]1O[C@@](CO)(O[C@H]2O[C@H](CO)[C@@H](O)[C@H](O)[C@H]2O)[C@@H](O)[C@@H]1O` with its measured Composition of the reaction mixture.
Return: 358.4

Enquiry: Supply Composition of the reaction mixture value. Item: `O=C(CO)[C@@H](O)[C@H](O)[C@H](O)CO`
Return: 56.5

----------
Kindly supply the reported Composition of the reaction mixture values for the records listed here.
Test system: purified X. dendrorhous enzyme (F-3)
Protocol Details: Fructosyltransferase activity: sucrose 600 g/l incubated with purified enzyme at 60° C., HPLC
Format: biochemical, Xanthophyllomyces dendrorhous
Condition Summary: reaction time 160 h, 600 g sucrose/l, 5 U/ml
Please reply with the bare figure in grams/liter and do not write the unit itself.

Enquiry: Look up and report Composition of the reaction mixture, with purified X. dendrorhous enzyme (F-3) as system, for `O=C[C@H](O)[C@@H](O)[C@H](O)[C@H](O)CO`
Return: 84.3

Enquiry: Jot down Composition of the reaction mixture (purified X. dendrorhous enzyme (F-3)) of `OC[C@H]1O[C@@](CO)(O[C@H]2O[C@H](CO)[C@@H](O)[C@H](O)[C@H]2O)[C@@H](O)[C@@H]1O` .
Return: 416.1

Enquiry: Report value: Composition of the reaction mixture, system: purified X. dendrorhous enzyme (F-3), compound: `OC[C@H]1O[C@@](CO)(OC[C@@]2(O[C@H]3O[C@H](CO)[C@@H](O)[C@H](O)[C@H]3O)O[C@H](CO)[C@@H](O)[C@@H]2O)[C@@H](O)[C@@H]1O`
Return: 21.9

Enquiry: Report its Composition of the reaction mixture with purified X. dendrorhous enzyme (F-3) as the test system: `O=C(CO)[C@@H](O)[C@H](O)[C@H](O)CO`
Return: 41.2

Enquiry: Recall the reported Composition of the reaction mixture of `OC[C@H]1O[C@@](CO)(OC[C@H]2O[C@H](O[C@]3(CO)O[C@H](CO)[C@@H](O)[C@@H]3O)[C@H](O)[C@@H](O)[C@@H]2O)[C@@H](O)[C@@H]1O` on purified X. dendrorhous enzyme (F-3) and write it down.
Return: 36.5

----------
System: purified X. dendrorhous enzyme (F-3)
Protocol Details: Fructosyltransferase activity: sucrose 600 g/l incubated with purified enzyme at 60° C., HPLC
Type: biochemical, Xanthophyllomyces dendrorhous
Condition Summary: reaction time 140 h, 600 g sucrose/l, 5 U/ml
Protocol: A study was carried out using a high concentration of sucrose (600 g/l), conditions which can favor the formation of glycosidic bonds in detriment of hydrolysis. […] On one hand, fructose (peak 1) and glucose (peak 2) are formed as hydrolytic products. On the other hand, two trisaccharides are formed: a majority product (peak 4), which is most likely neokestose [β-D-Fru-(2→6)-α-D-Glu-(1→2)-D-Fru] […]
Measurement Kind: Composition of the reaction mixture (grams/liter)
Supply the numeric figure in grams/liter, leaving out any unit text.

Enquiry: Entry `OC[C@H]1O[C@@](CO)(OC[C@H]2O[C@H](O[C@]3(CO)O[C@H](CO)[C@@H](O)[C@@H]3O)[C@H](O)[C@@H](O)[C@@H]2O)[C@@H](O)[C@@H]1O` needs its Composition of the reaction mixture filled in; supply it.
Return: 34.3

Enquiry: Report Composition of the reaction mixture for `O=C[C@H](O)[C@@H](O)[C@H](O)[C@H](O)CO`
Return: 79.3

Enquiry: Tell me its Composition of the reaction mixture given `OC[C@H]1O[C@@](CO)(OC[C@@]2(O[C@H]3O[C@H](CO)[C@@H](O)[C@H](O)[C@H]3O)O[C@H](CO)[C@@H](O)[C@@H]2O)[C@@H](O)[C@@H]1O` as the entry.
Return: 21.3

Enquiry: For `OC[C@H]1O[C@@](CO)(O[C@H]2O[C@H](CO)[C@@H](O)[C@H](O)[C@H]2O)[C@@H](O)[C@@H]1O` , write its Composition of the reaction mixture.
Return: 424.2

Enquiry: Give Composition of the reaction mixture for the following molecule: `O=C(CO)[C@@H](O)[C@H](O)[C@H](O)CO`
Return: 40.9

----------
Record form. Attribute: Composition of the reaction mixture. Fill in for each entry.
Tested on: purified X. dendrorhous enzyme (F-3)
Protocol Details: Fructosyltransferase activity: sucrose 600 g/l incubated with purified enzyme at 45° C., HPLC
Format: biochemical, Xanthophyllomyces dendrorhous
Condition Summary: 45° C., reaction time 24 h, 600 g sucrose/l, 5 U/ml
Please reply with the bare figure in grams/liter and do not write the unit itself.

Enquiry: Give the value of Composition of the reaction mixture reported for the following: `OC[C@H]1O[C@@](CO)(OC[C@H]2O[C@H](O[C@]3(CO)O[C@H](CO)[C@@H](O)[C@@H]3O)[C@H](O)[C@@H](O)[C@@H]2O)[C@@H](O)[C@@H]1O`
Return: 20.5

Enquiry: Give Composition of the reaction mixture for the following molecule: `OC[C@H]1O[C@@](CO)(OC[C@@]2(O[C@H]3O[C@H](CO)[C@@H](O)[C@H](O)[C@H]3O)O[C@H](CO)[C@@H](O)[C@@H]2O)[C@@H](O)[C@@H]1O`
Return: 9.2

Enquiry: Quickly give me recorded Composition of the reaction mixture for `OC[C@H]1O[C@@](CO)(O[C@H]2O[C@H](CO)[C@@H](O)[C@H](O)[C@H]2O)[C@@H](O)[C@@H]1O`
Return: 513.4

Enquiry: Supply measured Composition of the reaction mixture of `O=C[C@H](O)[C@@H](O)[C@H](O)[C@H](O)CO` in your reply.
Return: 37.8

Enquiry: Return Composition of the reaction mixture (reported value) for this molecule: `O=C(CO)[C@@H](O)[C@H](O)[C@H](O)CO`
Return: 19.0

----------
For each record, write down the corresponding Composition of the reaction mixture.
Tested on: purified X. dendrorhous enzyme (F-3)
Protocol Details: Fructosyltransferase activity: sucrose 600 g/l incubated with purified enzyme at 45° C., HPLC
Type: biochemical, Xanthophyllomyces dendrorhous
Condition Summary: 45° C., reaction time 140 h, 600 g sucrose/l, 5 U/ml
Enter your answer as a number in grams/liter; do not include the unit.

Enquiry: Read the entry `OC[C@H]1O[C@@](CO)(O[C@H]2O[C@H](CO)[C@@H](O)[C@H](O)[C@H]2O)[C@@H](O)[C@@H]1O` and write its reported Composition of the reaction mixture.
Return: 357.5

Enquiry: Given `O=C(CO)[C@@H](O)[C@H](O)[C@H](O)CO` , respond with its Composition of the reaction mixture.
Return: 63.5

Enquiry: Output measured Composition of the reaction mixture for this item: `OC[C@H]1O[C@@](CO)(OC[C@H]2O[C@H](O[C@]3(CO)O[C@H](CO)[C@@H](O)[C@@H]3O)[C@H](O)[C@@H](O)[C@@H]2O)[C@@H](O)[C@@H]1O`
Return: 47.4

Enquiry: Tell me its Composition of the reaction mixture given `O=C[C@H](O)[C@@H](O)[C@H](O)[C@H](O)CO` as the entry.
Return: 106.8

Enquiry: Write down Composition of the reaction mixture measured for item `OC[C@H]1O[C@@](CO)(OC[C@@]2(O[C@H]3O[C@H](CO)[C@@H](O)[C@H](O)[C@H]3O)O[C@H](CO)[C@@H](O)[C@@H]2O)[C@@H](O)[C@@H]1O`
Return: 24.8

----------
Please provide measured Composition of the reaction mixture for the entries that follow.
Tested on: purified X. dendrorhous enzyme (F-3)
Protocol Details: Fructosyltransferase activity: sucrose 600 g/l incubated with purified enzyme at 60° C., HPLC
Assay type: biochemical, Xanthophyllomyces dendrorhous
Condition Summary: reaction time 24 h, 600 g sucrose/l, 5 U/ml
Number in grams/liter, nothing else.

Enquiry: Output measured Composition of the reaction mixture for this item: `OC[C@H]1O[C@@](CO)(OC[C@H]2O[C@H](O[C@]3(CO)O[C@H](CO)[C@@H](O)[C@@H]3O)[C@H](O)[C@@H](O)[C@@H]2O)[C@@H](O)[C@@H]1O`
Return: 25.8

Enquiry: Check the records and state Composition of the reaction mixture for `O=C(CO)[C@@H](O)[C@H](O)[C@H](O)CO`
Return: 36.8

Enquiry: Return the recorded Composition of the reaction mixture value; entry: `OC[C@H]1O[C@@](CO)(OC[C@@]2(O[C@H]3O[C@H](CO)[C@@H](O)[C@H](O)[C@H]3O)O[C@H](CO)[C@@H](O)[C@@H]2O)[C@@H](O)[C@@H]1O`
Return: 10.3

Enquiry: In one line, give reported Composition of the reaction mixture of the entry `OC[C@H]1O[C@@](CO)(O[C@H]2O[C@H](CO)[C@@H](O)[C@H](O)[C@H]2O)[C@@H](O)[C@@H]1O` .
Return: 474.0

Enquiry: Quick one: give measured Composition of the reaction mixture for `O=C[C@H](O)[C@@H](O)[C@H](O)[C@H](O)CO`
Return: 53.2
